Target: PI3Kδ (p110δ/p85α) (Homo sapiens, UniProt O00329)
Sequence (O00329 whole entry, species assumed): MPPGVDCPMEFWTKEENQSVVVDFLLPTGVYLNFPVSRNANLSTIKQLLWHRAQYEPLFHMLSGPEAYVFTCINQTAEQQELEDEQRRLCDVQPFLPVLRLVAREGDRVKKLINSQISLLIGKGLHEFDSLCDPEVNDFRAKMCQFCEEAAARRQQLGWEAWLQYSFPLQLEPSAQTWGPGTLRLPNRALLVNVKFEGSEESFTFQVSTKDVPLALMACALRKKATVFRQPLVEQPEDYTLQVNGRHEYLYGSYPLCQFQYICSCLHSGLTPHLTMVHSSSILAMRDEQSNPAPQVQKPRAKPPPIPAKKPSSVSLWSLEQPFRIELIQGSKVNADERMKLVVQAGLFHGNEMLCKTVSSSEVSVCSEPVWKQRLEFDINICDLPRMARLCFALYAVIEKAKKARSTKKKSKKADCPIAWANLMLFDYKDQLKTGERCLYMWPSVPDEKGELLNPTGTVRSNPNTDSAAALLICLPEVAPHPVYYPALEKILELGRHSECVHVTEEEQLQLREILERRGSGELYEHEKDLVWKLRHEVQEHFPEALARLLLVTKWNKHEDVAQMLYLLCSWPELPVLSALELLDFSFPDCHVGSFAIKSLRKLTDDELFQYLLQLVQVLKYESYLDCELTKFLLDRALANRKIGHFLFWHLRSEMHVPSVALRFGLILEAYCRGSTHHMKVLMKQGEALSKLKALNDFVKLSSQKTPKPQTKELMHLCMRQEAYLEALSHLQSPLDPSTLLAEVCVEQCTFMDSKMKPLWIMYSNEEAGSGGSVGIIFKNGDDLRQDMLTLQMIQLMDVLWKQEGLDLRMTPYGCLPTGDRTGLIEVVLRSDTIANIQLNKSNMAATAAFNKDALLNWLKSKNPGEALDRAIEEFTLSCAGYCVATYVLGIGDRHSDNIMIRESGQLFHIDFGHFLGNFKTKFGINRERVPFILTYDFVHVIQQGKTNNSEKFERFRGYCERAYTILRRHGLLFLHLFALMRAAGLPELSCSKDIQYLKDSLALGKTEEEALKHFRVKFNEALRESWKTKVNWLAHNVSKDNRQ
Sequence (P27986 whole entry partner, species assumed): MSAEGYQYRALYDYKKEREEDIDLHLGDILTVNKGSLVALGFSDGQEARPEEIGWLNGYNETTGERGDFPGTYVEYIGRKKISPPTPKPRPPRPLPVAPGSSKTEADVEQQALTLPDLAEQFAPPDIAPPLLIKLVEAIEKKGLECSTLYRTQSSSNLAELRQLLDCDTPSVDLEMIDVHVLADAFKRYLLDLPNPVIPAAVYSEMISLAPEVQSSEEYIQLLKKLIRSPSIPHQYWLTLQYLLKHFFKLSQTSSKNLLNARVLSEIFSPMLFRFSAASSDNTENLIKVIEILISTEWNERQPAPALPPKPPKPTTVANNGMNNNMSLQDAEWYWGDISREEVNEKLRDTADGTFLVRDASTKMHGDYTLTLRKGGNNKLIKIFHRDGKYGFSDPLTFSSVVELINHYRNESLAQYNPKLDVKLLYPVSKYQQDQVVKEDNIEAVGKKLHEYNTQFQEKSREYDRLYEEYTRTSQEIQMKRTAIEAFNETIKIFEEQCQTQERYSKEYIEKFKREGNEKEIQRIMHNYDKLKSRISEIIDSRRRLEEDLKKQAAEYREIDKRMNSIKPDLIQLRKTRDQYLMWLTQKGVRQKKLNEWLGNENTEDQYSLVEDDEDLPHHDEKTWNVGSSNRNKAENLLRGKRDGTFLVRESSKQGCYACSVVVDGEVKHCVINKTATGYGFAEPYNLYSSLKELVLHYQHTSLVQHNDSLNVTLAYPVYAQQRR
Experiment: PI3Kδ scintillation proximity assay
Conditions: 20 μM ATP, 4 nM PI3Kδ
pIC50: −log10 of the molar value.
For each entry below, report its pIC50 value.

Any idea what its pIC50 is? The compound is COc1c(C(C)Nc2ncnc3[nH]cnc23)cc(Cl)c(C)c1-c1cncc(C)c1 (stereo not shown) > 7.30

Try the compound COc1c(C(C)Nc2ncnc3[nH]cnc23)cc(Cl)c(C)c1-c1cc(Cl)cc(Cl)c1 (stereo not shown) 6.60 to 7.00

Try the compound COc1c(C(C)Nc2ncnc3[nH]cnc23)cc(Cl)c(C)c1-c1ccc(OC(C)C)nc1 (stereo not shown) 6.60 to 7.00

Try the compound Cc1c(Cl)cc(C(C)Nc2ncnc3[nH]cnc23)c(-c2cccc(F)c2)c1C(N)=O (stereo not shown) > 7.30

Try the compound COc1ncc(-c2c(C)c(Cl)cc(C(C)Nc3ncnc4[nH]cnc34)c2-c2ccccc2)cn1 (stereo not shown) > 7.30

Try the compound CCOc1ccc(-c2c(C)c(Cl)cc(C(C)Nc3ncnc4[nH]cnc34)c2OC)cc1F (stereo not shown) 6.60 to 7.00

Try the compound CNC(=O)c1ccc(-c2c(C)c(Cl)cc(C(C)Nc3ncnc4[nH]cnc34)c2OC)cc1Cl (stereo not shown) > 7.30

Try the compound COc1c(-c2cnc(N)nc2)cc(Cl)cc1C(C)Nc1ncnc2[nH]cnc12 (stereo not shown) 6.60 to 7.00

Try the compound COCCN1CC(c2c(Cl)c(Cl)cc(C(C)Nc3ncnc4[nH]cnc34)c2OC)C1 (stereo not shown) > 7.30

Try the compound COc1c(C(C)Nc2ncnc3[nH]cnc23)cc(Cl)c(C)c1-c1ccc(F)c(C(F)(F)F)c1 (stereo not shown) 7.00 to 7.30

Try the compound COc1c(C(C)Nc2ncnc3[nH]cnc23)cc(Cl)c(C)c1-c1ccc(C(F)(F)F)cc1 (stereo not shown) 6.60 to 7.00

Try the compound COc1cncc(-c2c(C)c(Cl)cc(C(C)Nc3ncnc4[nH]cnc34)c2OC)c1 (single isomer, unassigned) [Example 113] > 7.30

Try the compound COc1c(-c2ccc(F)nc2)cc(Cl)cc1C(C)Nc1ncnc2[nH]cnc12 (stereo not shown) > 7.30

Try the compound COc1c(C(C)Nc2ncnc3[nH]cnc23)cc(Cl)c(C)c1C1CN(C(C)C)C1 (stereo not shown) [Example 170, bis(trifluoroacetate)] > 7.30

Try the compound COc1c(C(C)Nc2ncnc3[nH]cnc23)cc(Cl)c(C)c1-c1ccnc(N2CCOCC2)c1F (stereo not shown) > 7.30

Try the compound COc1c(C(C)Nc2ncnc3[nH]cnc23)cc(Cl)c(C)c1-c1ccc(Cl)cc1 (stereo not shown) 6.30 to 6.60

Try the compound Cc1n[nH]c(C)c1-c1c(C)c(Cl)cc(C(C)Nc2ncnc3[nH]cnc23)c1-c1cc(F)cc(F)c1 (stereo not shown) > 7.30

Try the compound COc1c(C(C)Nc2ncnc3[nH]cnc23)cc(Cl)c(C)c1-c1ccc(C(=O)N(C)C)c(F)c1 (stereo not shown) > 7.30

Try the compound COc1c(C(C)Nc2ncnc3[nH]cnc23)cc(Cl)c(C)c1-c1cccc(N(C)C)c1 (stereo not shown) > 7.30

Try the compound Cc1c(Cl)cc(C(C)Nc2ncnc3[nH]cnc23)c(-c2cc(F)cc(F)c2)c1-c1ccc(C#N)cc1 (stereo not shown) 6.60 to 7.00

Try the compound CCOc1c(C(C)Nc2ncnc3[nH]cnc23)cc(Cl)c(C)c1C1CN(C)C1 (stereo not shown) > 7.30

Try the compound COc1ccc(-c2c(C)c(Cl)cc(C(C)Nc3ncnc4[nH]cnc34)c2OC)cn1 (stereo not shown) > 7.30

###

Target: PI3Kδ (p110δ/p85α) (Homo sapiens, UniProt O00329)
Experiment: PI3Kδ scintillation proximity assay
Conditions: 20 μM ATP, 4 nM PI3Kδ
Where a name gives a salt, the structure may show the parent alone.
Property label: IC50

Any idea what its IC50 is? The compound is COc1c(C(C)Nc2ncnc3[nH]cnc23)cc(F)c(C)c1-c1ccc(S(C)(=O)=O)cc1 (centres unmarked) [Example 118] 50 to 100 nM

Try the compound COc1c(C(C)Nc2ncnc3[nH]cnc23)cc(Cl)c(C)c1C1CN(C(C)=O)C1 (centres unmarked) [Example 166, trifluoroacetate] < 50 nM

Try the compound COc1ccc(-c2c(C)c(Cl)cc(C(C)Nc3ncnc4[nH]cnc34)c2OC)cc1Cl (centres unmarked) [Example 97] 50 to 100 nM

Try the compound COc1c(C(C)Nc2ncnc3[nH]cnc23)cc(Cl)c(C)c1-c1ccnnc1 (centres unmarked) [Example 163, bis(trifluoroacetate)] < 50 nM

Try the compound COc1ccc(-c2c(C)c(Cl)cc(C(C)Nc3ncnc4[nH]cnc34)c2OC)cc1OC (centres unmarked) [Example 96] < 50 nM

Try the compound COC(=O)N(C(=O)OC)c1c(C)c(Cl)cc(C(C)Nc2ncnc3[nH]cnc23)c1-c1cccc(F)c1 (centres unmarked) [Example 10] < 50 nM

Try the compound COc1cc(-c2c(C)c(Cl)cc(C(C)Nc3ncnc4[nH]cnc34)c2OC)ccc1F (centres unmarked) [Example 95] < 50 nM

Try the compound COc1c(C(C)Nc2ncnc3[nH]cnc23)cc(Cl)c(C)c1-c1ccc(N2CCOCC2)nc1 (centres unmarked) [Example 48] < 50 nM

Try the compound COc1c(C(C)Nc2ncnc3[nH]cnc23)cc(F)c(C)c1-c1cnn(C)c1 (centres unmarked) [Example 121] < 50 nM

Try the compound COc1c(C(C)Nc2ncnc3[nH]cnc23)cc(Cl)c(C)c1-c1ccc(C#N)nc1 (centres unmarked) [Example 58] 50 to 100 nM

Try the compound COc1c(C(C)Nc2ncnc3[nH]cnc23)cc(Cl)c(C)c1-c1cccc(CC#N)c1 (centres unmarked) [Example 46] < 50 nM

Try the compound Cc1c(Cl)cc(C(C)Nc2ncnc3[nH]cnc23)c(-c2cc(F)cc(F)c2)c1-c1ccncc1 (centres unmarked) [Example 76, bis(trifluoroacetate)] < 50 nM

Try the compound COc1c(C(C)Nc2ncnc3[nH]cnc23)cc(Cl)c(C)c1-c1cscn1 (centres unmarked) [Example 164, trifluoroacetate] < 50 nM

Try the compound COc1c(C(C)Nc2ncnc3[nH]cnc23)cc(Cl)c(C)c1-c1c(C)noc1C (centres unmarked) [Example 22] < 50 nM

Try the compound Cc1noc(C)c1-c1c(C)c(Cl)cc(C(C)Nc2ncnc3[nH]cnc23)c1-c1cccc(F)c1 (centres unmarked) [Example 71, trifluoroacetate] < 50 nM

Try the compound Cc1c(Cl)cc(C(C)Nc2ncnc3[nH]cnc23)c(-c2cccc(F)c2)c1-c1ccnn1C (centres unmarked) [Example 74] < 50 nM

Try the compound COc1c(C(C)Nc2ncnc3[nH]cnc23)cc(Cl)c(C)c1-c1ccc(F)c(C(N)=O)c1 (centres unmarked) [Example 61] < 50 nM

###

For each entry below, report its IC50 value.
Molecular target: PI3Kδ (p110δ/p85α) (Homo sapiens)
Construct: purchased Millipore (Bedford, Mass.)
Assay: PI3Kδ scintillation proximity assay
Type: biochemical
Conditions: 20 μM ATP, 4 nM PI3Kδ
Protocol: Example A: PI3Kδ Scintillation Proximity Assay Materials: [γ-^33P]ATP (10 mCi/mL) was purchased from Perkin-Elmer (Waltham, Mass.). […] The kinase reaction was conducted in polystyrene 384-well matrix white plate from Thermo Fisher Scientific in a final volume of 25 μL. […] After the plate sealing, plates were shaken overnight at room temperature and centrifuged at 1800 rpm for 10 minutes, the radioactivity of the product was determined by scintillation counting on Topcount (Perkin-Elmer). […]

Any idea what its IC50 is? The compound is COc1c(-c2cc(F)nc(F)c2)cc(Cl)cc1C(C)Nc1ncnc2[nH]cnc12 (stereo not shown) 250 to 500 nM

Try the compound COc1c(C(C)Nc2ncnc3[nH]cnc23)cc(Cl)c(Cl)c1C1CN(Cc2cscn2)C1 (stereo not shown) < 50 nM

Try the compound COc1c(C(C)Nc2ncnc3[nH]cnc23)cc(Cl)c(C)c1-c1cccc(F)c1 (stereo not shown) < 50 nM

Try the compound COc1c(C(C)Nc2ncnc3[nH]cnc23)cc(Cl)c(C)c1C1CN(C)C1 (stereo not shown) [Example 171, bis(trifluoroacetate)] < 50 nM
